Assayed target: Cannabinoid receptor 2 (Homo sapiens)
Protocol summary: Displacement of [3H]CP-55,940 from CB2 receptor (unknown origin) after 1 hr by scintillation counting analysis
Test conditions: read-out: Ki
Reported Ki values for the following compounds.

Sample records with Ki:
Smiles data | Assayed target | Ki
CCCCCCCN(Cc1ccc(N(CC)CC)cc1)S(=O)(=O)Cc1ccccc1 | Cannabinoid receptor 2 (Homo sapiens) | 273 nM
CCCCCCCN(Cc1ccc(N(CC)CC)cc1)S(=O)(=O)c1ccc(F)cc1 | Cannabinoid receptor 2 (Homo sapiens) | 1100 nM
CCCCCCCN(Cc1ccc(N(CC)CC)cc1)S(=O)(=O)c1ccc(OC(C)C)cc1 | Cannabinoid receptor 2 (Homo sapiens) | > 20000 nM
CCN(CC)c1ccc(CN([C@]23C[C@H]4C[C@H](C[C@H](C4)C2)C3)S(=O)(=O)c2cccc(C)c2)cc1 | Cannabinoid receptor 2 (Homo sapiens) | 19 nM
CCCCCCCN(Cc1ccc(N(CC)CC)cc1)C(=O)Cc1ccccc1 | Cannabinoid receptor 2 (Homo sapiens) | 1310 nM
CCCCCCCN(Cc1ccc(N(CC)CC)cc1)S(=O)(=O)c1cccc(C)c1 | Cannabinoid receptor 2 (Homo sapiens) | 2300 nM

Prompt line: Record request: Ki value, item CCCCCCCN(Cc1ccc(N(CC)CC)cc1)C(=O)C1CCCCC1
Response line: 212 nM

Prompt line: Record request: Ki value, item CCN(CC)c1ccc(CN(c2ccc(Cl)cc2)S(=O)(=O)c2ccc(C)cc2)cc1
Response line: 37 nM

Prompt line: Record request: Ki value, item CCN(CC)c1ccc(CN(C(=O)C2CCCCC2)[C@]23C[C@H]4C[C@H](C[C@H](C4)C2)C3)cc1
Response line: 35 nM

====

Observed Ki values for Cannabinoid receptor 1 (Homo sapiens) are listed in what follows.

Sample records with Ki:
Smiles data | Ki
CCN(CC)c1ccc(CN(C(=O)Cc2ccccc2)c2ccc(C)cc2)cc1 | > 20 µM
CCN(CC)c1ccc(CN(c2ccc(Cl)cc2)S(=O)(=O)c2ccc(OC)cc2)cc1 | > 20 µM
CCN(CC)c1ccc(CN([C@]23C[C@H]4C[C@H](C[C@H](C4)C2)C3)S(=O)(=O)c2ccccc2)cc1 | 11 µM
CCN(CC)c1ccc(CN([C@]23C[C@H]4C[C@H](C[C@H](C4)C2)C3)S(=O)(=O)c2ccc(C)cc2)cc1 | > 20 µM
CCN(CC)c1ccc(CN([C@]23C[C@H]4C[C@H](C[C@H](C4)C2)C3)S(=O)(=O)c2ccc(Cl)cc2)cc1 | 2.03 µM
CCN(CC)c1ccc(CN([C@]23C[C@H]4C[C@H](C[C@H](C4)C2)C3)S(=O)(=O)c2cccc(C)c2)cc1 | 8.22 µM
CCN(CC)c1ccc(CN(C(=O)C2CCCCC2)[C@]23C[C@H]4C[C@H](C[C@H](C4)C2)C3)cc1 | > 20 µM
CCN(CC)c1ccc(CN([C@]23C[C@H]4C[C@H](C[C@H](C4)C2)C3)S(=O)(=O)c2ccc(F)cc2)cc1 | 4.27 µM

Then there is this molecule:
Prompt line: Quick check: Ki on Cannabinoid receptor 1 (Homo sapiens), item CCN(CC)c1ccc(CN(C(=O)Cc2ccc(Cl)cc2)[C@]23C[C@H]4C[C@H](C[C@H](C4)C2)C3)cc1 ?
Response line: > 20 µM

====

Assayed target: Cannabinoid receptor 2 (Homo sapiens, UniProt P34972)
Sequence (P34972 whole entry): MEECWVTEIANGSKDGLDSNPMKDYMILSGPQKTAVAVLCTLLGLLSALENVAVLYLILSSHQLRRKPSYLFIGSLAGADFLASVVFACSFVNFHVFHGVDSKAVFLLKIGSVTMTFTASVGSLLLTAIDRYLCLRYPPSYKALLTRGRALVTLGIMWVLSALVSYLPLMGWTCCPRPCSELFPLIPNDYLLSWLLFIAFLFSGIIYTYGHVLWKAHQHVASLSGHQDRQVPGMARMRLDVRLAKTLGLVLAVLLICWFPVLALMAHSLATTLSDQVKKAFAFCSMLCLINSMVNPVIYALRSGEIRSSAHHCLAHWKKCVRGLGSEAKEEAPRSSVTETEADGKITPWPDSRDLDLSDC
Protocol summary: Displacement of [3H]CP-55,940 from CB2 receptor (unknown origin) after 1 hr by scintillation counting analysis
Test conditions: read-out: Ki
Reported Ki values for the following molecules.
Give the quantity in nM, number only.

Sample records with Ki:
Smiles data | Reported property | Endpoint value
CCN(CC)c1ccc(CN(c2ccc(Cl)cc2)S(=O)(=O)c2ccc(C(C)C)cc2)cc1 | Ki | 222
CCN(CC)c1ccc(CN([C@]23C[C@H]4C[C@H](C[C@H](C4)C2)C3)S(=O)(=O)c2ccc(Cl)cc2)cc1 | Ki | 173
CCN(CC)c1ccc(CN(C(=O)Cc2ccccc2)c2ccc(C)cc2)cc1 | Ki | 72

Then there is this molecule:
Prompt line: Record request: Ki value, item CCN(CC)c1ccc(CN(c2ccc(C)cc2)S(=O)(=O)c2ccccc2)cc1
Response line: 3.4

====

Species on record: Homo sapiens
Protocol summary: Selectivity index, ratio of Ki for CB1 receptor (unknown origin) to Ki for CB2 receptor (unknown origin)
Reported Ratio Ki values for the following compounds.
No unit in the answer, only the number.

Sample records with Ratio Ki:
Smiles data | Ratio Ki
CCN(CC)c1ccc(CN(c2ccc(C)cc2)S(=O)(=O)c2ccc(F)cc2)cc1 | 153
CCN(CC)c1ccc(CN([C@]23C[C@H]4C[C@H](C[C@H](C4)C2)C3)S(=O)(=O)c2ccccc2)cc1 | 130
CCN(CC)c1ccc(CN(C(=O)C2CCCCC2)c2ccc(C)cc2)cc1 | 0.9
CCN(CC)c1ccc(CN(c2ccc(C)cc2)S(=O)(=O)c2ccc(C(C)C)cc2)cc1 | 782
Cc1ccc(S(=O)(=O)N(CCc2ccc(Cl)cc2)S(=O)(=O)c2ccc(C)cc2)cc1 | 26

Prompt line: Record request: Ratio Ki value, item CCN(CC)c1ccc(CN(c2ccc(Cl)cc2)S(=O)(=O)c2ccc(Cl)cc2)cc1
Response line: 183

Prompt line: Record request: Ratio Ki value, item CCN(CC)c1ccc(CN(C(=O)Cc2ccc(Cl)cc2)c2ccc(C)cc2)cc1
Response line: 29

Prompt line: Record request: Ratio Ki value, item CCN(CC)c1ccc(CN(c2ccc(Cl)cc2)S(=O)(=O)c2ccc(C)cc2)cc1
Response line: 3.7

Prompt line: Record request: Ratio Ki value, item CCN(CC)c1ccc(CN(c2ccc(Cl)cc2)S(=O)(=O)c2ccc(F)cc2)cc1
Response line: 15

Prompt line: Record request: Ratio Ki value, item CCN(CC)c1ccc(CN(c2ccc(C)cc2)S(=O)(=O)c2ccccc2)cc1
Response line: 151

Prompt line: Record request: Ratio Ki value, item CCN(CC)c1ccc(CN(c2ccc(C)cc2)S(=O)(=O)c2cccc(C)c2)cc1
Response line: 37

====

Assayed target: Cannabinoid receptor 2 (Homo sapiens)
Protocol summary: Inverse agonist activity at human CB2 receptor expressed in CHO cells assessed as increase in forskolin-induced cAMP production after 45 mins in presence of phosphodiesterase inhibitor RO20-1724
Format: functional, cell-based
Reported property: EC50 (nM)
Give the quantity in nM, number only.

Sample records with EC50:
Smiles data | Measurement units | EC50
CCN(CC)c1ccc(CN(c2ccc(Cl)cc2)S(=O)(=O)c2ccc(OC)cc2)cc1 | nM | 16.4
CCN(CC)c1ccc(CN([C@]23C[C@H]4C[C@H](C[C@H](C4)C2)C3)S(=O)(=O)c2ccc(F)cc2)cc1 | nM | 268
CCN(CC)c1ccc(CN(c2ccc(C)cc2)S(=O)(=O)c2ccc(OC)cc2)cc1 | nM | 42.7

Then there is this compound:
Prompt line: Record request: EC50 value, item CCN(CC)c1ccc(CN(c2ccc(C)cc2)S(=O)(=O)c2ccccc2)cc1
Response line: 609

====

Reported Ki values for the following molecules.
Assayed target: Cannabinoid receptor 2 (Homo sapiens, UniProt P34972)
Protocol summary: Displacement of [3H]CP-55,940 from CB2 receptor (unknown origin) after 1 hr by scintillation counting analysis
Test conditions: read-out: Ki
Give the quantity in µM, number only.

Smiles data | Endpoint value
CCN(CC)c1ccc(CN(c2ccc(Cl)cc2)S(=O)(=O)c2ccc(Cl)cc2)cc1 | 0.036
CCN(CC)c1ccc(CN(C(=O)C2CCCCC2)c2ccc(Cl)cc2)cc1 | 0.164

Then there is this molecule:
Prompt line: Record request: Ki value, item CCN(CC)c1ccc(CN(c2ccc(C)cc2)S(=O)(=O)c2ccc(F)cc2)cc1
Response line: 0.0056

====

Assayed target: Cannabinoid receptor 2 (Homo sapiens)
Protocol summary: Displacement of [3H]CP-55,940 from CB2 receptor (unknown origin) after 1 hr by scintillation counting analysis
Test conditions: read-out: Ki
pKi: −log10 of the molar value.
Class field: derived from pKi; ranges bottom (below 6), middle (6 to below 7), top (7 or more)

Sample answers from the record:
Smiles data | Class name
CCCCCCCC(=O)N(Cc1ccc(N(CC)CC)cc1)[C@]12C[C@H]3C[C@H](C[C@H](C3)C1)C2 | middle
Cc1ccc(S(=O)(=O)N(CCc2ccc(Cl)cc2)S(=O)(=O)c2ccc(C)cc2)cc1 | middle
CCN(CC)c1ccc(CN(c2ccc(C)cc2)S(=O)(=O)c2ccc(Cl)cc2)cc1 | top

Prompt line: Assign a category based on measured pKi for CCN(CC)c1ccc(CN([C@]23C[C@H]4C[C@H](C[C@H](C4)C2)C3)S(=O)(=O)c2ccc(F)cc2)cc1 and give only the class name.
Response line: top

====

Species on record: Homo sapiens
Protocol summary: Selectivity index, ratio of Ki for CB1 receptor (unknown origin) to Ki for CB2 receptor (unknown origin)
Reported property: Ratio Ki
No unit in the answer, only the number.

Smiles data | Endpoint value
CCN(CC)c1ccc(CN(C(=O)C2CCCCC2)c2ccc(Cl)cc2)cc1 | 121
CCN(CC)c1ccc(CN(C(=O)Cc2ccc(Cl)cc2)c2ccc(Cl)cc2)cc1 | 147
CCN(CC)c1ccc(CN([C@]23C[C@H]4C[C@H](C[C@H](C4)C2)C3)S(=O)(=O)c2ccc(Cl)cc2)cc1 | 11

Then there is this compound:
Prompt line: Record request: Ratio Ki value, item CCN(CC)c1ccc(CN(c2ccc(C)cc2)S(=O)(=O)c2ccc(OC)cc2)cc1
Response line: 2590
